A collection of compounds and their measured remaining at 24 h, 1 µM
# assay notes: Metabolic stability in mouse plasma assessed as compound remaining at 1 uM after 24 hrs by HPLC-ESI-MS/MS analysis
# Format: ADME, cell-free
# condition notes: read-out: Stability
Provide a numeric answer, followed by its unit.

Input "C[C@H](CCC(=O)N[C@@H](Cc1c[nH]c2ccccc12)C(=O)O)[C@H]1CC[C@H]2[C@@H]3CC=C4C[C@@H](O)CC[C@]4(C)[C@H]3CC[C@]12C" . Output remaining at 24 h, 1 µM: 95.8%

Okay, now this compound:
Lab note: measured remaining at 24 h, 1 µM of "C[C@H](CCC(=O)N[C@H](CC(=O)O)Cc1c[nH]c2ccccc12)[C@H]1CC[C@H]2[C@@H]3CC[C@@H]4C[C@H](O)CC[C@]4(C)[C@H]3CC[C@]12C" was 98.3%

###

The molecules below have reported IC50 for Ephrin type-A receptor 2 (Homo sapiens).

The molecule "C[C@H](CCC(=O)N[C@@H](CO)C(=O)O)[C@H]1CC[C@H]2[C@@H]3CC=C4C[C@@H](O)CC[C@]4(C)[C@H]3CC[C@]12C" , tested on Ephrin type-A receptor 2 (Homo sapiens), showed IC50 of > 100 µM

Turning now to a further molecule:
Tested system Ephrin type-A receptor 2 (Homo sapiens); IC50 recorded for "C[C@H](CCC(=O)O)[C@H]1CC[C@H]2[C@@H]3CC=C4C[C@@H](O)CC[C@]4(C)[C@H]3CC[C@]12C" was 39.8 µM

###

# assay notes: AUC (0 to t) in mouse at 30 mg/kg, po administered as single dose by HPLC-MS analysis
# Format: ADME, organism-based
# condition notes: in vivo
value type: AUC(0-t)

Looking up "C[C@H](CCC(=O)N[C@@H](Cc1c[nH]c2ccccc12)C(=O)O)[C@H]1CC[C@H]2[C@@H]3CC=C4C[C@@H](O)CC[C@]4(C)[C@H]3CC[C@]12C" , I found its AUC(0-t) recorded as 573 ng·h/mL

# ---- query compound ----
Lookup result for "C[C@H](CCC(=O)N[C@H](CC(=O)O)Cc1c[nH]c2ccccc12)[C@H]1CC[C@H]2[C@@H]3CC[C@@H]4C[C@H](O)CC[C@]4(C)[C@H]3CC[C@]12C" ; measured AUC(0-t): 21.2 ng·h/mL

###

# assay target: Ephrin type-A receptor 6 (Homo sapiens, UniProt Q9UF33)
# Sequence (Q9UF33 whole entry): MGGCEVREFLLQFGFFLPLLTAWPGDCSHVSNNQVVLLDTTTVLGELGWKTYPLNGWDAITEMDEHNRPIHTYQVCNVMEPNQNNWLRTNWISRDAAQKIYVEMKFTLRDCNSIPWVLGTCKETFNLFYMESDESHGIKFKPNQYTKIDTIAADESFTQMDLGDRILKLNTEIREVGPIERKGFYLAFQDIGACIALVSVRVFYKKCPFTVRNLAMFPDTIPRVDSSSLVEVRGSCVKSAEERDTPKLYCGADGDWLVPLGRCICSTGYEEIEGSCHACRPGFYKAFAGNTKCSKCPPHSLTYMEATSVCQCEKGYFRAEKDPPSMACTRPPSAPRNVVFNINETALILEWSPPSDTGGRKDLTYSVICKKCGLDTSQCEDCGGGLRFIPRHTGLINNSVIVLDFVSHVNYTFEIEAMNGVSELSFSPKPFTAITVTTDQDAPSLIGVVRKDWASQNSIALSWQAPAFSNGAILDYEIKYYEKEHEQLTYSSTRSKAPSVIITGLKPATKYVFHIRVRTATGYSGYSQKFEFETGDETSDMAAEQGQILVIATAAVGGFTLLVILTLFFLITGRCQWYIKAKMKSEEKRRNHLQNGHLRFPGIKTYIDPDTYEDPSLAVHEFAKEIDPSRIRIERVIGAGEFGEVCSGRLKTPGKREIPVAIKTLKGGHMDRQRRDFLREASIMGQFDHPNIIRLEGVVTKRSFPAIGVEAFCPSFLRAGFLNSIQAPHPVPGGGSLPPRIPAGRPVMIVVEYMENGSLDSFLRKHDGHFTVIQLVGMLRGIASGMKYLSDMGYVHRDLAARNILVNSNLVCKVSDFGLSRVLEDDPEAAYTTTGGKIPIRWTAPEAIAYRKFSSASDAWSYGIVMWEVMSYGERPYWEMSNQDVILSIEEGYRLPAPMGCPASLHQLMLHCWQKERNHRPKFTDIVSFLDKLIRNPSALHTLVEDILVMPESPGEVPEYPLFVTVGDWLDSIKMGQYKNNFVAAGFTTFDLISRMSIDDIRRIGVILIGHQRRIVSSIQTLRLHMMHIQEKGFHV
value type: IC50 (µM)
The answer is to be given in µM; state only the numeric part.

Recorded result, "C[C@H](CCC(=O)N[C@@H](Cc1c[nH]c2ccccc12)C(=O)O)[C@H]1CC[C@H]2[C@@H]3CC=C4C[C@@H](O)CC[C@]4(C)[C@H]3CC[C@]12C" , IC50: 3.5
